Target: Thioredoxin reductase 1, cytoplasmic (Rattus norvegicus)
Assay: qHTS Assay for Inhibitors of Mammalian Selenoprotein Thioredoxin Reductase 1 (TrxR1): qHTS; also: nearly all actives have a fitted effect of over 65% in size
Conditions: recombinant rTrxR1, NADPH fluorescence consumption, selenite substrate; series mostly up to 114 µM
Out of some 390,000 compounds screened, about 4,000 (1%) were called active. Roughly 4% stayed inconclusive and do not appear here. Calls follow the shape of the dose curve; as a rule, active = well fitted inhibition curve with a large enough effect; inconclusive = small, poorly fitted or top-dose-only effect; inactive = no such curve, though single readings can be large or run the other way. The sample as a whole holds a higher share of actives than the screen did.
The reply should be one of these categories: active, inactive

See these solved cases before continuing.
COc1cccc(-c2nc(S(=O)(=O)c3ccc(C)cc3)c(NCc3ccccc3)o2)c1	inactive
Cc1cccc([C@H]2[C@@H]3C=CC[C@@H](C)[C@@H]3C(=O)N2Cc2ccccc2)c1	inactive
O=C(NC(=S)Nc1ccccc1C(=O)O)c1ccc(-c2ccc(Br)cc2)o1	active
CCc1ccc(S(=O)(=O)N/N=C\c2ccc([N+](=O)[O-])o2)cc1	active
CCCCOc1ccc(C(=O)NO)cc1	inactive
Cc1cc(C)c(NC(=O)CN2C(=O)c3cccnc3Oc3ccc(Cl)cc32)c(C)c1	inactive

Outcome? Cc1cc(C)c(NC(=O)c2cc3sc(Cl)cc3n2C)c(C)c1
inactive

Outcome? O=C(NC(=S)Nc1cccc(-c2ccc(CO)o2)c1)c1cccs1
active

====

Molecular target: Thioredoxin reductase 1, cytoplasmic (Rattus norvegicus)
Assay: qHTS Assay for Inhibitors of Mammalian Selenoprotein Thioredoxin Reductase 1 (TrxR1): qHTS; also: nearly all actives have a fitted effect of over 65% in size
Conditions: recombinant rTrxR1, NADPH fluorescence consumption, selenite substrate; series mostly up to 114 µM
The campaign covered roughly 390,000 compounds. About 4,000 (1%) were called active. Not shown: some 4% with an inconclusive outcome. The call rests on the fitted dose curve; in most records, active means well fitted inhibition curve with a large enough effect; inconclusive means small, poorly fitted or top-dose-only effect; inactive means no such curve, though single readings can be large or run the other way. This excerpt belongs to a sample that is enriched for actives.
The reply should be one of these categories: true = active, false = inactive

Cc1ccccc1C(=O)Nc1sc2c(c1C(=O)N1CCC(C)CC1)CCCC2	false

Outcome? COc1ccc(C(=O)C2CCCN(C(=O)c3cnsn3)C2)c(C)c1 (stereo not drawn)
false

Outcome? O=C(Cn1ncc2c3ccccc3n(Cc3ccccc3)c2c1=O)NC1CCCCCC1
false

Outcome? COc1cn(CC(=O)Nc2cccc(C)c2C)c(CN2CCCCC2)cc1=O
false

Outcome? C/[N+]([O-])=C\c1ccc([N+](=O)[O-])o1
true

Outcome? Cc1noc(C)c1NC(=O)Nc1ccc2c(c1)C(=O)N([C@H](C)CO)C[C@H](C)[C@@H](CN(C)C(=O)Nc1ccc(C(F)(F)F)cc1)O2
false

====

Biological target: Thioredoxin reductase 1, cytoplasmic (Rattus norvegicus)
Assay: qHTS Assay for Inhibitors of Mammalian Selenoprotein Thioredoxin Reductase 1 (TrxR1): qHTS; also: nearly all actives have a fitted effect of over 65% in size
Settings: recombinant rTrxR1, NADPH fluorescence consumption, selenite substrate; series mostly up to 114 µM
Screen size: about 390,000 compounds; about 4,000 (1%) were called active. Another 4% or so got no clear call; they are omitted. The call rests on the fitted dose curve; in most records, active means well fitted inhibition curve with a large enough effect; inconclusive means small, poorly fitted or top-dose-only effect; inactive means no such curve, though single readings can be large or run the other way. For the sample, actives were picked, then their nearest neighbours and some compounds at random.
The reply should be one of these categories: 1 for active, -1 for inactive

See these solved cases before continuing.
CC(C)(C)OC(=O)N(Cc1ccco1)S(=O)(=O)c1ccccc1Br	-1
CC1(C)C/C(=N/Nc2ccc([N+](=O)[O-])cc2[N+](=O)[O-])C(C)(C)O1	-1
O=[N+]([O-])c1ccc(N/N=C2/CCCCC2c2ccccn2)c([N+](=O)[O-])c1 (configuration not stated)	1
CC(=O)Nc1ccc(N2C(=O)CC(Sc3nccc(C)n3)C2=O)cc1 (configuration not stated)	-1
Cc1nnc(N2CCCC(C(=O)NCCN(C)C)C2)c2nn(-c3ccccc3)c(C)c12 (configuration not stated)	-1
COc1ccc(/C=C/c2ccccn2)cc1OC	-1

Outcome? COc1ccc(-c2nc(SCC(=O)N3CCCCC3C)n[nH]2)cc1 (configuration not stated)
-1

Sourced from PubChem BioAssay AID588453
